- TESTED SYSTEM: Brd4 bromodomain 1 (Homo sapiens, UniProt O60885)
- Construct: made in house; host or cells: E. coli BL21(DE3)
- TEST SUMMARY: Inhibition of binding of tetra-acetylated histone H4 to Brd4 bromodomain 1 (TR-FRET)
- CONDITIONS USED: His-tagged Brd4 bromodomain 1 200 nM, tetra-acetylated histone H4 peptide 25-50 nM, 2 hours room temperature
- Description: Proteins were cloned and overexpressed with a N-terminal 6×His tag, then purified by nickel affinity followed by size exclusion chromatography. […] For inhibition assays, serially diluted test compound was added to these reactions in a 0.2% final concentration of DMSO. […] The binding inhibitory activity was shown by a decrease in 665 nm fluorescence relative to 620 nm. IC50 values were determined from a dose response curve.
PROPERTY MEASURED: FRET activity (<50 uM)

>  <CHEMICAL STRING>
Cc1cc(-c2nc3cc(OCCOC(C)C)cc(OCCOC(C)C)c3c(=O)[nH]2)cc(C)n1

>  <TESTED SYSTEM>
Brd4 bromodomain 1 (Homo sapiens, UniProt O60885)

>  <FRET activity (<50 uM)>
Active

$$$$
>  <CHEMICAL STRING>
COCCOc1cc(OC)c2c(=O)[nH]c(-c3cc(C)nc(C)c3)nc2c1

>  <TESTED SYSTEM>
Brd4 bromodomain 1 (Homo sapiens, UniProt O60885)

>  <FRET activity (<50 uM)>
Active

$$$$
>  <CHEMICAL STRING>
COc1cc(OC)c2c(=O)[nH]c(-c3ccc4[nH]c(CN(C)C)cc4c3)nc2c1

>  <TESTED SYSTEM>
Brd4 bromodomain 1 (Homo sapiens, UniProt O60885)

>  <FRET activity (<50 uM)>
Active

$$$$
>  <CHEMICAL STRING>
COc1cc(OC)c2c(=O)[nH]c(-c3ccc(N4C[C@@H](C)N[C@@H](C)C4)cc3)nc2c1

>  <TESTED SYSTEM>
Brd4 bromodomain 1 (Homo sapiens, UniProt O60885)

>  <FRET activity (<50 uM)>
Active

$$$$
>  <CHEMICAL STRING>
COc1cc(OC)c2c(=O)[nH]c(-c3cc(C)c(CCCN4CCCC4)c(C)c3)nc2c1

>  <TESTED SYSTEM>
Brd4 bromodomain 1 (Homo sapiens, UniProt O60885)

>  <FRET activity (<50 uM)>
Active

$$$$
>  <CHEMICAL STRING>
COc1cc(OC)c2c(=O)[nH]c(-c3ccc(OC4CCN(C(C)=O)CC4)cc3)nc2c1

>  <TESTED SYSTEM>
Brd4 bromodomain 1 (Homo sapiens, UniProt O60885)

>  <FRET activity (<50 uM)>
Active

$$$$
>  <CHEMICAL STRING>
COc1cc(OC)c2c(=O)[nH]c(-c3ccc4[nH]c(CN5CCCC5)cc4c3)nc2c1

>  <TESTED SYSTEM>
Brd4 bromodomain 1 (Homo sapiens, UniProt O60885)

>  <FRET activity (<50 uM)>
Active

$$$$
>  <CHEMICAL STRING>
COc1cc(OC)c2c(=O)[nH]c(-c3ccc(C4CCN(C(C)=O)CC4)cc3)nc2c1

>  <TESTED SYSTEM>
Brd4 bromodomain 1 (Homo sapiens, UniProt O60885)

>  <FRET activity (<50 uM)>
Active

$$$$

Per the records, this molecule ( COCCOc1cc(OC)c2c(=O)[nH]c(-c3ccnc(C)c3)nc2c1 ) has FRET activity (<50 uM) equal to Active

# FRET activity (<50 uM) (molecule: COc1cccc(-c2nc3cc(OC)cc(OC)c3c(=O)[nH]2)c1 ) is Inactive

Lab note: CCCCN1CCN(c2ccc(-c3nc4cc(OC)cc(OC)c4c(=O)[nH]3)cc2)CC1 gave FRET activity (<50 uM) of Active
